Origin of values: patent US20230331718A1

Kindly supply the reported IC50 values for the records listed here.
- Tested on: SMN2 Splicing D7 (SMN Δ7 transcript)
- experiment: SMN Quantitative Splicing Assay (qPCR)
- Type: cell-based, human
- condition-label: Homo sapiens, Fibroblast, 24 h, SMA patient fibroblasts (GM03813), 2.5 µM to 0.6 nM

Record summary for `CN(c1cnc(-c2cc3ccn(CC(F)(F)F)c(=O)c3cc2O)nn1)[C@H]1C[C@@H]2CC[C@@H](N2)[C@H]1F` : reported IC50 = 16 to 50 nM

Record summary for `CN(c1cnc(-c2cc3c(F)cn(C)c(=O)c3cc2O)nn1)[C@@H]1CC2CC[C@H](N2)[C@@H]1F` : reported IC50 = 16 to 50 nM

Record summary for `CN(c1cnc(-c2cc3ncn(C)c(=O)c3cc2O)nn1)[C@H]1C[C@]2(C)COC[C@](C)(C1)N2` : reported IC50 = 0.01 to 15 nM

Record summary for `CN(c1cnc(-c2cc3ccn(C)c(=O)c3cc2O)nn1)[C@H]1CC2CC[C@@H](N2)[C@H]1F` : reported IC50 = 0.01 to 15 nM

Record summary for CN(c1cnc(-c2cc3ncn(C)c(=O)c3cc2O)nn1)C1CC2CC[C@](C)(N2)[C@@H]1F (stereo partly shown) : reported IC50 = 0.01 to 15 nM

Record summary for `[2H]C([2H])([2H])n1cnc2cc(-c3ncc(N(C)[C@@H]4CC5CC[C@H](N5)[C@@H]4F)nn3)c(O)cc2c1=O` : reported IC50 = 0.01 to 15 nM

Record summary for CCN1C=C(F)c2cc(-c3ncc(N(C)[C@@H]4CC5CCC(N5)[C@@H]4F)nn3)c(O)cc2O1 (stereo partly shown) : reported IC50 = 51 to 100 nM
